pIC50: −log10 of the molar value.
Record set: pIC50 | Thromboxane-A synthase (Homo sapiens) | literature, multiple sources.

{"COMPOUND": "O=C(O)CCn1cc(Cn2ccnc2)c2ccc(C(F)(F)F)cc21", "TARGET": "Thromboxane-A synthase (Homo sapiens)", "COMPARISON_OPERATOR": "=", "pIC50": 8.00}
{"COMPOUND": "O=C(O)CCCC(CCCNS(=O)(=O)c1ccc(Cl)cc1)CCc1cccnc1 (stereo not given)", "TARGET": "Thromboxane-A synthase (Homo sapiens)", "COMPARISON_OPERATOR": "=", "pIC50": 7.70}
{"COMPOUND": "O=C(O)CCC/C=C(\\c1ccc(CNS(=O)(=O)c2ccc(Cl)cc2)cc1)c1cccnc1", "TARGET": "Thromboxane-A synthase (Homo sapiens)", "COMPARISON_OPERATOR": "=", "pIC50": 8.15}
{"COMPOUND": "O=C(O)C(CCCCCCNS(=O)(=O)c1ccc(Cl)cc1)CCCCCc1cccnc1 (stereo not given)", "TARGET": "Thromboxane-A synthase (Homo sapiens)", "COMPARISON_OPERATOR": "=", "pIC50": 8.40}
{"COMPOUND": "N#Cc1ccc([C@H]2OC[C@@H](C/C=C\\CCC(=O)NCCCCCCNC(=O)CC/C=C\\C[C@@H]3CO[C@H](c4ccc(C#N)cc4)O[C@@H]3c3ccccc3O)[C@@H](c3cccnc3)O2)cc1", "TARGET": "Thromboxane-A synthase (Homo sapiens)", "COMPARISON_OPERATOR": "<", "pIC50": 5.00}
{"COMPOUND": "O=C(O)c1ccc(/C=C(\\c2ccc(CCNS(=O)(=O)c3ccc(Cl)cc3)cc2)c2cccnc2)cc1", "TARGET": "Thromboxane-A synthase (Homo sapiens)", "COMPARISON_OPERATOR": "=", "pIC50": 7.57}
{"COMPOUND": "O=C(O)/C=C/C(CCCCNS(=O)(=O)c1ccc(Cl)cc1)CCCc1cccnc1 (stereo not given)", "TARGET": "Thromboxane-A synthase (Homo sapiens)", "COMPARISON_OPERATOR": "=", "pIC50": 8.00}
{"COMPOUND": "Cc1ccc2c(c1)c(Cn1ccnc1)cn2CCC(=O)O", "TARGET": "Thromboxane-A synthase (Homo sapiens)", "COMPARISON_OPERATOR": "=", "pIC50": 7.38}
{"COMPOUND": "CCCCCCn1cncc1[C@H]1OC(C)(C)OC[C@H]1C/C=C\\CCC(=O)O", "TARGET": "Thromboxane-A synthase (Homo sapiens)", "COMPARISON_OPERATOR": "=", "pIC50": 6.05}
{"COMPOUND": "COC(=O)CCCCCC(CNS(=O)(=O)c1ccccc1)c1cccnc1 (stereo not given)", "TARGET": "Thromboxane-A synthase (Homo sapiens)", "COMPARISON_OPERATOR": "<", "pIC50": 5.00}
{"COMPOUND": "CC(C)(CC(CCCCNS(=O)(=O)c1ccc(Cl)cc1)CCCc1cccnc1)C(=O)O (stereo not given)", "TARGET": "Thromboxane-A synthase (Homo sapiens)", "COMPARISON_OPERATOR": "=", "pIC50": 7.70}
{"COMPOUND": "CCOC(=O)Cc1ccc(OCCn2ccnc2)cc1", "TARGET": "Thromboxane-A synthase (Homo sapiens)", "COMPARISON_OPERATOR": "=", "pIC50": 5.54}
{"COMPOUND": "c1ccc(OCCn2ccnc2)cc1", "TARGET": "Thromboxane-A synthase (Homo sapiens)", "COMPARISON_OPERATOR": "=", "pIC50": 6.18}
{"COMPOUND": "O=C(O)CCn1cc(Cn2ccnc2)c2cc(Br)ccc21", "TARGET": "Thromboxane-A synthase (Homo sapiens)", "COMPARISON_OPERATOR": "=", "pIC50": 7.92}
{"COMPOUND": "O=C(O)CC/C=C\\CC[C@@H]1[C@@H](c2cccnc2)S(=O)(=O)C[C@H]1OCc1ccc(-c2ccccc2)cc1", "TARGET": "Thromboxane-A synthase (Homo sapiens)", "COMPARISON_OPERATOR": "<", "pIC50": 6.70}
{"COMPOUND": "O=C(O)CC/C=C\\C[C@@H]1CO[C@H](c2ccccc2Cl)O[C@@H]1c1ccccc1O", "TARGET": "Thromboxane-A synthase (Homo sapiens)", "COMPARISON_OPERATOR": "<", "pIC50": 4.00}
{"COMPOUND": "Cc1ccc(S(=O)(=O)NCCCCC(CCCc2cccnc2)CCC(=O)O)cc1 (stereo not given)", "TARGET": "Thromboxane-A synthase (Homo sapiens)", "COMPARISON_OPERATOR": "=", "pIC50": 9.00}
{"COMPOUND": "O=C(O)CC/C=C\\CC[C@@H]1[C@@H](c2cccnc2)[S@@+]([O-])C[C@H]1OCc1ccc(-c2ccccc2)cc1", "TARGET": "Thromboxane-A synthase (Homo sapiens)", "COMPARISON_OPERATOR": "<", "pIC50": 6.70}
{"COMPOUND": "O=C(O)CC/C=C\\CC[C@H]1[C@@H](OCc2ccc(-c3ccccc3)cc2)CO[C@@H]1c1cccnc1 (stereo in doubt; (-))", "TARGET": "Thromboxane-A synthase (Homo sapiens)", "COMPARISON_OPERATOR": "=", "pIC50": 6.92}
{"COMPOUND": "CSc1c(Cn2ccnc2)sc2ccc(C(=O)O)cc12", "TARGET": "Thromboxane-A synthase (Homo sapiens)", "COMPARISON_OPERATOR": "=", "pIC50": 7.37}
{"COMPOUND": "N#Cc1ccc([C@H]2OC[C@@H](C/C=C\\CCC(=O)Oc3ccc(OC(=O)CC/C=C\\C[C@@H]4CO[C@H](c5ccc(C#N)cc5)O[C@@H]4c4ccccc4O)cc3)[C@@H](c3cccnc3)O2)cc1", "TARGET": "Thromboxane-A synthase (Homo sapiens)", "COMPARISON_OPERATOR": "<", "pIC50": 5.00}
{"COMPOUND": "CC1(C)OC[C@@H](C/C=C\\CCC(=O)O)[C@@H](c2cnco2)O1", "TARGET": "Thromboxane-A synthase (Homo sapiens)", "COMPARISON_OPERATOR": "<", "pIC50": 5.00}
{"COMPOUND": "O=C(O)CCC/C=C(\\c1ccc(CCN(CCC(=O)O)S(=O)(=O)c2ccc(Cl)cc2)cc1)c1cccnc1", "TARGET": "Thromboxane-A synthase (Homo sapiens)", "COMPARISON_OPERATOR": "=", "pIC50": 7.00}
{"COMPOUND": "O=C(O)CCCCCCC(NS(=O)(=O)c1ccc(Cl)cc1)c1cccnc1 (stereo not given)", "TARGET": "Thromboxane-A synthase (Homo sapiens)", "COMPARISON_OPERATOR": "<", "pIC50": 6.30}
{"COMPOUND": "O=C(O)CCCCO/N=C(/c1cccc(C(F)(F)F)c1)c1cnccn1", "TARGET": "Thromboxane-A synthase (Homo sapiens)", "COMPARISON_OPERATOR": "=", "pIC50": 5.54}
{"COMPOUND": "N#Cc1ccc([C@H]2OC[C@@H](C/C=C\\CCC(=O)Oc3ccccc3OC(=O)CC/C=C\\C[C@@H]3CO[C@H](c4ccc(C#N)cc4)O[C@@H]3c3ccccc3O)[C@@H](c3cccnc3)O2)cc1", "TARGET": "Thromboxane-A synthase (Homo sapiens)", "COMPARISON_OPERATOR": "<", "pIC50": 5.00}
{"COMPOUND": "CC(C)(CCCCCc1ccc(/C(=C\\CCCCC(=O)O)c2cccnc2)cc1)[C@H]1OC[C@@H](C/C=C\\CCC(=O)O)[C@@H](c2ccccc2O)O1", "TARGET": "Thromboxane-A synthase (Homo sapiens)", "COMPARISON_OPERATOR": "=", "pIC50": 8.00}
{"COMPOUND": "O=C(O)CCCCO/N=C(/c1ccccc1)c1ncccn1", "TARGET": "Thromboxane-A synthase (Homo sapiens)", "COMPARISON_OPERATOR": "<", "pIC50": 5.00}
{"COMPOUND": "O=C(O)CCC/C=C(\\c1ccc(CCN(CCN2CCOCC2)S(=O)(=O)c2ccc(Cl)cc2)cc1)c1cccnc1", "TARGET": "Thromboxane-A synthase (Homo sapiens)", "COMPARISON_OPERATOR": "=", "pIC50": 8.40}
{"COMPOUND": "O=C(O)c1ccc2c(Cl)c(Cn3ccnc3)sc2c1", "TARGET": "Thromboxane-A synthase (Homo sapiens)", "COMPARISON_OPERATOR": "=", "pIC50": 7.40}
